- targetSystem: Sodium channel protein type 9 subunit alpha (Homo sapiens, UniProt Q15858)
- Sequence (Q15858 whole entry): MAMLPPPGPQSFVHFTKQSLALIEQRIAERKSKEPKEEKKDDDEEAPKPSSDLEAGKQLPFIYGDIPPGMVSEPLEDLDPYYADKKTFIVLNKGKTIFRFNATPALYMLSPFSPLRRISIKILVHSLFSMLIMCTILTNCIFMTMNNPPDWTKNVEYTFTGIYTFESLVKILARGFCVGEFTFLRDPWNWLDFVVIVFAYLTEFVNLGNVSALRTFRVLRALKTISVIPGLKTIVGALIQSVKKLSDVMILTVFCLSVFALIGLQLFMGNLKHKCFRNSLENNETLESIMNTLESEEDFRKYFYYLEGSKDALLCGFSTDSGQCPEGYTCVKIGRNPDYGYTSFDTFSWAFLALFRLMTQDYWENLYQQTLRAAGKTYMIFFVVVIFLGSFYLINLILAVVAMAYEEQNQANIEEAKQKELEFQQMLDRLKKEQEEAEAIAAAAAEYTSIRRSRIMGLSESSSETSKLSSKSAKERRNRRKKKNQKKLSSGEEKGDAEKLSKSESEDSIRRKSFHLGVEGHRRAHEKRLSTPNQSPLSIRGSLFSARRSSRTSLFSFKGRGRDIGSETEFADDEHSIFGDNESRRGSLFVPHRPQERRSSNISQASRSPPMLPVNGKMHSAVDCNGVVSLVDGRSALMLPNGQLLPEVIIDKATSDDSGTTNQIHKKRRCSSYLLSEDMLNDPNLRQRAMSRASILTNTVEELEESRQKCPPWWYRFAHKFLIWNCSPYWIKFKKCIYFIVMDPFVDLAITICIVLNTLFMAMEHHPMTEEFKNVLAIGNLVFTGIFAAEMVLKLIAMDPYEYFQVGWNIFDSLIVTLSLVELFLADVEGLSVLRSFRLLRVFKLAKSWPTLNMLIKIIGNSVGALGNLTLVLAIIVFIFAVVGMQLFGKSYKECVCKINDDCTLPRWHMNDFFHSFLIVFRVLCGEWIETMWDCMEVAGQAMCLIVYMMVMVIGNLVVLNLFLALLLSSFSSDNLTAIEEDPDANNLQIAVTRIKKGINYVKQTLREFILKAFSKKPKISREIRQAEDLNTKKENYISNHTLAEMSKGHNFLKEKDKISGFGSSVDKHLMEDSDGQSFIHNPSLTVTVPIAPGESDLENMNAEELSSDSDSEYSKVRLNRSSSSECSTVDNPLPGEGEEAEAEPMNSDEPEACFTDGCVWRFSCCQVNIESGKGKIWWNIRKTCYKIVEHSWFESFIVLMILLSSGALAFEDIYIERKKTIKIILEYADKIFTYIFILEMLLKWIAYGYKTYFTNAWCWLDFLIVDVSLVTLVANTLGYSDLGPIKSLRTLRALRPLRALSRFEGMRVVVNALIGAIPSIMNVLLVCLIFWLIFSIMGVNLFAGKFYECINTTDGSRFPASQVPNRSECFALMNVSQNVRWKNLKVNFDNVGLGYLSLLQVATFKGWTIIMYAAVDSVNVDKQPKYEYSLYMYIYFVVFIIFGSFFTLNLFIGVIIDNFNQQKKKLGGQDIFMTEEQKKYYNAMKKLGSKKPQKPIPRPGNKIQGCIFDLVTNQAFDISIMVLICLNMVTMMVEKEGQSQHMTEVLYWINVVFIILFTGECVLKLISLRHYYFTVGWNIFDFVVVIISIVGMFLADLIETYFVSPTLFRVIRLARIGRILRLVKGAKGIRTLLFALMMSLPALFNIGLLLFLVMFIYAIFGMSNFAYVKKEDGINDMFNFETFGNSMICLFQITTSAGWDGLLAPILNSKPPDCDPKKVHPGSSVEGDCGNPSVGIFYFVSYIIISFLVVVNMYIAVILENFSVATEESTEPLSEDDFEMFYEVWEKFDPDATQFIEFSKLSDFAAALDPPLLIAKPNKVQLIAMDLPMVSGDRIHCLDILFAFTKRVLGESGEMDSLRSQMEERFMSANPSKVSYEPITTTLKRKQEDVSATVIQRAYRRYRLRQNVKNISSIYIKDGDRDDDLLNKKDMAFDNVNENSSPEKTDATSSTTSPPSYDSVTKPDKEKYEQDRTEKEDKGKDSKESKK
- assayRemarks: In vitro inhibitory concentration against voltage-gated sodium channel Nav1.7 in voltage-ion-probe-reader (VIPR) assay

compound	targetSystem	quantityUnit	IC50
NS(=O)(=O)c1ccccc1-c1ccc(CNC(=O)CCCC(=O)NCc2ccc(-c3cccs3)s2)cc1	Sodium channel protein type 9 subunit alpha (Homo sapiens, UniProt Q15858)	nM	3200
CC(C(=O)NCc1ccc(-c2ccccc2S(N)(=O)=O)cc1)C(C)C(=O)NCc1ccc(-c2cccs2)s1 (stereo not given)	Sodium channel protein type 9 subunit alpha (Homo sapiens, UniProt Q15858)	nM	1400
NS(=O)(=O)c1ccccc1-c1ccc(CNC(=O)[C@H]2CC[C@@H]2C(=O)NCc2ccc(-c3cccs3)s2)cc1 (racemic)	Sodium channel protein type 9 subunit alpha (Homo sapiens, UniProt Q15858)	nM	210
NS(=O)(=O)c1ccccc1-c1ccc(CNC(=O)[C@H]2CCC[C@@H]2C(=O)NCc2ccc(-c3cccs3)s2)cc1 (racemic)	Sodium channel protein type 9 subunit alpha (Homo sapiens, UniProt Q15858)	nM	370
COc1ccc(CNC(=O)[C@H]2CCC[C@@H]2C(=O)N(C)Cc2ccc(-c3ccccc3S(N)(=O)=O)cc2)cc1 (racemic)	Sodium channel protein type 9 subunit alpha (Homo sapiens, UniProt Q15858)	nM	10000

* * *

- assayRemarks: Clearance value of the compound was determined in plasma of rat
- Assay type: ADME, organism-based
- recordedConditions: read-out: Clp
So basically: is clearance under 2 L/h/kg? Then Condition met. Not under? Then Condition not met.

molecule	classLabel
NS(=O)(=O)c1ccccc1-c1ccc(CNC(=O)CCC(=O)NCc2ccc(-c3cccs3)s2)cc1	Condition not met
CN(Cc1ccc(-c2ccccc2S(N)(=O)=O)cc1)C(=O)CCC(=O)NCc1cccc(OC(F)(F)F)c1	Condition not met
CN(Cc1ccc(-c2ccccc2S(N)(=O)=O)cc1)C(=O)[C@H]1CCC[C@@H]1C(=O)NCc1ccc(-c2cccs2)s1 (racemic)	Condition met
NS(=O)(=O)c1ccccc1-c1ccc(CNC(=O)[C@H]2CCC[C@@H]2C(=O)NCc2ccc(-c3cccs3)s2)cc1 (racemic)	Condition not met
CN(Cc1ccc(-c2ccccc2S(N)(=O)=O)cc1)C(=O)[C@H]1CCC[C@@H]1C(=O)NCc1ccc(OC(F)(F)F)cc1 (racemic)	Condition met

* * *

- targetSystem: Sodium channel protein type 9 subunit alpha (Homo sapiens)
- assayRemarks: In vitro inhibitory concentration against voltage-gated sodium channel Nav1.7 in voltage-ion-probe-reader (VIPR) assay
pIC50: −log10 of the molar value.
Decide using pIC50: a value greater than or equal to 6 is Criterion met, a smaller one is Criterion not met.

molecule	classLabel
COc1ccc(CNC(=O)[C@H]2CCC[C@@H]2C(=O)NCc2ccc(-c3ccccc3S(N)(=O)=O)cc2)cc1 (racemic)	Criterion not met
NS(=O)(=O)c1ccccc1-c1ccc(CNC(=O)[C@H]2CCC[C@@H]2C(=O)NCc2ccccc2)cc1 (racemic)	Criterion not met
NS(=O)(=O)c1ccccc1-c1ccc(CNC(=O)[C@H]2CCC[C@@H]2C(=O)NCc2ccc([N+](=O)[O-])cc2)cc1 (racemic)	Criterion not met
CN(Cc1ccc(-c2ccccc2S(N)(=O)=O)cc1)C(=O)[C@H]1CCC[C@@H]1C(=O)NCc1ccc(C(F)(F)F)cc1 (racemic)	Criterion not met
NS(=O)(=O)c1ccccc1-c1ccc(CNC(=O)CCC(=O)NCc2ccc(-c3cccs3)s2)cc1	Criterion met
CC(NC(=O)[C@H]1CCC[C@@H]1C(=O)NCc1ccc(-c2ccccc2S(N)(=O)=O)cc1)c1ccc(-c2cccs2)s1 (mixture of isomers)	Criterion not met
CC(C)(CC(=O)NCc1ccc(-c2ccccc2S(N)(=O)=O)cc1)C(=O)NCc1ccc(-c2cccs2)s1	Criterion not met
NS(=O)(=O)c1ccccc1-c1ccc(CNC(=O)[C@H]2CCC[C@@H]2C(=O)NCc2ccc(OC(F)(F)F)cc2)cc1 (racemic)	Criterion met
Cc1ccccc1-c1ccc(CNC(=O)[C@H]2CCC[C@@H]2C(=O)NCc2ccc(-c3ccccc3S(N)(=O)=O)cc2)cc1 (racemic)	Criterion not met
CN(Cc1ccc(-c2ccccc2S(N)(=O)=O)cc1)C(=O)[C@H]1CCC[C@@H]1C(=O)NCc1ccccc1 (racemic)	Criterion not met
CN(Cc1ccc(-c2ccccc2S(N)(=O)=O)cc1)C(=O)[C@H]1CCC[C@@H]1C(=O)N(C)Cc1ccc(-c2cccs2)s1 (racemic)	Criterion not met
NS(=O)(=O)c1ccccc1-c1ccc(CNC(=O)[C@H]2CCC[C@H]2C(=O)NCc2ccc(-c3cccs3)s2)cc1 (racemic)	Criterion not met
CC(NC(=O)[C@H]1CCC[C@@H]1C(=O)N(C)Cc1ccc(-c2ccccc2S(N)(=O)=O)cc1)c1ccc(-c2cccs2)s1 (mixture of isomers)	Criterion not met
NS(=O)(=O)c1ccccc1-c1ccc(CNC(=O)c2cccc(C(=O)NCc3ccc(-c4cccs4)s3)c2)cc1	Criterion not met
NS(=O)(=O)c1ccccc1-c1ccc(CNC(=O)c2ccccc2C(=O)NCc2ccc(-c3cccs3)s2)cc1	Criterion not met
NS(=O)(=O)c1ccccc1-c1ccc(CNC(=O)/C=C\C(=O)NCc2ccc(-c3cccs3)s2)cc1	Criterion met
CN(Cc1ccc(-c2cccs2)s1)C(=O)[C@H]1CCC[C@@H]1C(=O)NCc1ccc(-c2ccccc2S(N)(=O)=O)cc1 (racemic)	Criterion not met
NS(=O)(=O)c1ccccc1-c1ccc(CNC(=O)[C@H]2CCC[C@@H]2C(=O)NCc2ccc(-c3ccccc3C(F)(F)F)cc2)cc1 (racemic)	Criterion met

* * *

- assayRemarks: Half life period of the compound was determined in rat
- Assay type: ADME
- recordedConditions: in vivo
Reported half-life by item:

molecule	half-life (min)
NS(=O)(=O)c1ccccc1-c1ccc(CNC(=O)CCC(=O)NCc2ccc(-c3cccs3)s2)cc1	30
CN(Cc1ccc(-c2ccccc2S(N)(=O)=O)cc1)C(=O)[C@H]1CCC[C@@H]1C(=O)NCc1ccc(-c2cccs2)s1 (racemic)	72
NS(=O)(=O)c1ccccc1-c1ccc(CNC(=O)[C@H]2CCC[C@@H]2C(=O)NCc2ccc(-c3cccs3)s2)cc1 (racemic)	18
CN(Cc1ccc(-c2ccccc2S(N)(=O)=O)cc1)C(=O)CCC(=O)NCc1cccc(OC(F)(F)F)c1	30
CN(Cc1ccc(-c2ccccc2S(N)(=O)=O)cc1)C(=O)[C@H]1CCC[C@@H]1C(=O)NCc1ccc(OC(F)(F)F)cc1 (racemic)	58.8

* * *

Reported bioavailability by item:
- assayRemarks: Bioavailability in rat
- Format: ADME, organism-based
- recordedConditions: in vivo
outcomeMeasure: bioavailability (%)

molecule	quantityUnit	reportedMeasurement
CN(Cc1ccc(-c2ccccc2S(N)(=O)=O)cc1)C(=O)[C@H]1CCC[C@@H]1C(=O)NCc1ccc(OC(F)(F)F)cc1 (racemic)	%	44
CN(Cc1ccc(-c2ccccc2S(N)(=O)=O)cc1)C(=O)[C@H]1CCC[C@@H]1C(=O)NCc1ccc(-c2cccs2)s1 (racemic)	%	3.3
CN(Cc1ccc(-c2ccccc2S(N)(=O)=O)cc1)C(=O)CCC(=O)NCc1cccc(OC(F)(F)F)c1	%	27
NS(=O)(=O)c1ccccc1-c1ccc(CNC(=O)CCC(=O)NCc2ccc(-c3cccs3)s2)cc1	%	1.9
NS(=O)(=O)c1ccccc1-c1ccc(CNC(=O)[C@H]2CCC[C@@H]2C(=O)NCc2ccc(-c3cccs3)s2)cc1 (racemic)	%	1.2

* * *

- targetSystem: Sodium channel protein type 9 subunit alpha (Homo sapiens, UniProt Q15858)
- assayRemarks: Inhibitory constant against voltage-gated sodium channel Nav1.7 in electrophysiology assays (EP)
pKi: −log10 of the molar value.
Consider the following partition of reported pKi into named classes: lower (below 6), middle (6 to below 7), upper (7 or more)

compound	targetSystem	classLabel
CN(Cc1ccc(-c2ccccc2S(N)(=O)=O)cc1)C(=O)[C@H]1CCC[C@@H]1C(=O)NCc1cccc(OC(F)(F)F)c1 (racemic)	Sodium channel protein type 9 subunit alpha (Homo sapiens, UniProt Q15858)	middle
CN(Cc1ccc(-c2ccccc2S(N)(=O)=O)cc1)C(=O)[C@H]1CCC[C@@H]1C(=O)NCc1ccc(OC(F)(F)F)cc1 (racemic)	Sodium channel protein type 9 subunit alpha (Homo sapiens, UniProt Q15858)	middle
C=C1[C@H](C(=O)NCc2ccc(-c3ccccc3S(N)(=O)=O)cc2)[C@H]1C(=O)NCc1ccc(-c2cccs2)s1 (racemic)	Sodium channel protein type 9 subunit alpha (Homo sapiens, UniProt Q15858)	lower
CN(Cc1ccc(-c2ccccc2S(N)(=O)=O)cc1)C(=O)[C@H]1CCC[C@@H]1C(=O)NCc1ccc(C(F)(F)F)cc1 (racemic)	Sodium channel protein type 9 subunit alpha (Homo sapiens, UniProt Q15858)	middle
NS(=O)(=O)c1ccccc1-c1ccc(CNC(=O)[C@H]2CCC[C@@H]2C(=O)NCc2ccc(-c3cccs3)s2)cc1 (racemic)	Sodium channel protein type 9 subunit alpha (Homo sapiens, UniProt Q15858)	upper
CC(NC(=O)[C@H]1CCC[C@@H]1C(=O)NCc1ccc(-c2cccs2)s1)c1ccc(-c2ccccc2S(N)(=O)=O)cc1 (mixture of isomers)	Sodium channel protein type 9 subunit alpha (Homo sapiens, UniProt Q15858)	upper
NS(=O)(=O)c1ccccc1-c1ccc(CNC(=O)[C@H]2CCC[C@@H]2C(=O)NCc2ccc([N+](=O)[O-])cc2)cc1 (racemic)	Sodium channel protein type 9 subunit alpha (Homo sapiens, UniProt Q15858)	lower
NS(=O)(=O)c1ccccc1-c1ccc(CNC(=O)[C@H]2CCCC[C@@H]2C(=O)NCc2ccc(-c3cccs3)s2)cc1 (racemic)	Sodium channel protein type 9 subunit alpha (Homo sapiens, UniProt Q15858)	lower
NS(=O)(=O)c1ccccc1-c1ccc(CNC(=O)c2cccc(C(=O)NCc3ccc(-c4cccs4)s3)c2)cc1	Sodium channel protein type 9 subunit alpha (Homo sapiens, UniProt Q15858)	lower
NS(=O)(=O)c1ccccc1-c1ccc(CNC(=O)[C@H]2CCC[C@@H]2C(=O)NCc2ccc(-c3ccccc3)cc2)cc1 (racemic)	Sodium channel protein type 9 subunit alpha (Homo sapiens, UniProt Q15858)	upper
NS(=O)(=O)c1ccccc1-c1ccc(CNC(=O)[C@H]2CCC[C@@H]2C(=O)NCc2ccc(-c3ccccc3C(F)(F)F)cc2)cc1 (racemic)	Sodium channel protein type 9 subunit alpha (Homo sapiens, UniProt Q15858)	middle
NS(=O)(=O)c1ccccc1-c1ccc(CNC(=O)[C@H]2CCC[C@@H]2C(=O)NCc2ccc(OC(F)(F)F)cc2)cc1 (racemic)	Sodium channel protein type 9 subunit alpha (Homo sapiens, UniProt Q15858)	middle
COc1ccc(CNC(=O)[C@H]2CCC[C@@H]2C(=O)NCc2ccc(-c3ccccc3S(N)(=O)=O)cc2)cc1 (racemic)	Sodium channel protein type 9 subunit alpha (Homo sapiens, UniProt Q15858)	lower
Cc1ccccc1-c1ccc(CNC(=O)[C@H]2CCC[C@@H]2C(=O)NCc2ccc(-c3ccccc3S(N)(=O)=O)cc2)cc1 (racemic)	Sodium channel protein type 9 subunit alpha (Homo sapiens, UniProt Q15858)	middle
COc1ccc(CNC(=O)[C@H]2CCC[C@@H]2C(=O)N(C)Cc2ccc(-c3ccccc3S(N)(=O)=O)cc2)cc1 (racemic)	Sodium channel protein type 9 subunit alpha (Homo sapiens, UniProt Q15858)	lower
NS(=O)(=O)c1ccccc1-c1ccc(CNC(=O)/C=C\C(=O)NCc2ccc(-c3cccs3)s2)cc1	Sodium channel protein type 9 subunit alpha (Homo sapiens, UniProt Q15858)	middle

Reference for the values: ChEMBL document CHEMBL1143509
